- target_or_system: T1, Cynomolgus CD3εδ Fc heterodimer (Cy CD3ε Fc / CD3δ Fc-HIS) (cynomolgus, UniProt Q95LI8 22-100)
- T1 chain 1: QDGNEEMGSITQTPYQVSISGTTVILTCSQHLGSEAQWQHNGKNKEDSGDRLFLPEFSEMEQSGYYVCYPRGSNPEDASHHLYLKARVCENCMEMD
- T1 chain 2: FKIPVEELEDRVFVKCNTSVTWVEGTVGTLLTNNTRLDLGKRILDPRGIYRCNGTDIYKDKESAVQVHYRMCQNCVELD
- assay_summary: BLI (Octet), IgG on AHC sensor, pH 7.4
quantity_measured: kon (M⁻¹ s⁻¹)

>>> meas_value("SAD10320_P02_F06 (ADI-57370) (antibody, V domains shown, IgG; also called Ab87) VH: QVQLVQSGAEVKKPGASVKVSCKASGFNIKDYYMHWVRQAPGQRLAWMGWIDLENANTIYDAKFQGRVTITRDTSASTAYMELSSLRSEDTAVYYCARDAYGRFHYDVWGQGTLVTVSS VL: DIVMTQSPDSLAVSLGERATINCKSSQSLLNARPGKNYLAWYQQKPGQPPKLLIYWASTRESGVPDRFSGSGSGTDFTLTISSLQAEDVAVYYCKQSYSRRTFGGGTKVEIK")
118000
>>> meas_value("SAD10320_P01_E02 (ADI-57349) (antibody, V domains shown, IgG; also called Ab55) VH: QVQLVQSGAEVKKPGASVKVSCKASGFNIKDYYMHWVRQAPGQRLAWMGWIDLENANTIYDAKFQGRVTITRDTSASTAYMELSSLRSEDTAVYYCARDAYGRHFYDVWGQGTLVTVSS VL: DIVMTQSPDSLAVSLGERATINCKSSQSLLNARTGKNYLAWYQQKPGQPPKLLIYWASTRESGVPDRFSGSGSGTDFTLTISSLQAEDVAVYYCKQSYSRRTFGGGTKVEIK")
304000
>>> meas_value("SAD10319_P01_E02 (ADI-57304) (antibody, V domains shown, IgG; also called Ab240) VH: QVQLVQSGAEVKKPGASVKVSCKASGYTFTSDFMHWVRQAPGQRLEWMGWINPATGATKYSQKFQGRVTITRDTSASTAYMELSSLRSEDTAVYYCARDAYGHYFYDHWGQGTLVTVSS VL: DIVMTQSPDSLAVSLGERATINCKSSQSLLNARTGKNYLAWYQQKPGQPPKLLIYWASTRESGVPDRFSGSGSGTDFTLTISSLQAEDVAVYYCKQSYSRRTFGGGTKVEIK")
245000
>>> meas_value("LAD9955_P01_G02 (ADI-57439) (antibody, V domains shown, IgG; also called Ab170) VH: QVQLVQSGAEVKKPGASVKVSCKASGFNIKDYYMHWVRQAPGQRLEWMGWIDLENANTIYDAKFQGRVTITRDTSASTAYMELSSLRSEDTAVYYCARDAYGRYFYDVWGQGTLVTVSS VL: DIVMTQSPDSLAVSLGERATINCKSSQSLLHARTGKNHLAWYQQKPGQPPKLLIYWASTRESGVPDRFSGSGSGTDFTLTISSLQAEDVAVYYCKQSYSRRTFGGGTKVEIK")
147000
>>> meas_value("SAD10319_P02_F06 (ADI-57324) (antibody, V domains shown, IgG; also called Ab13) VH: QVQLVQSGAEVKKPGASVKVSCKASGYTFLSYAMHWVRQAPGQRLERMGWINPSTGATDYSQKFQGRVTITRDTSASTAYMELSSLRSEDTAVYYCARDAYGHYFYDVWGQGTLVTVSS VL: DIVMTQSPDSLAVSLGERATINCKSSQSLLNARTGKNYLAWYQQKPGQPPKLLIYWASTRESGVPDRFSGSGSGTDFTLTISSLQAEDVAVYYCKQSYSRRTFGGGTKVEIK")
247000
